Catalogue of molecules with associated Ki
Protein target, amino acids: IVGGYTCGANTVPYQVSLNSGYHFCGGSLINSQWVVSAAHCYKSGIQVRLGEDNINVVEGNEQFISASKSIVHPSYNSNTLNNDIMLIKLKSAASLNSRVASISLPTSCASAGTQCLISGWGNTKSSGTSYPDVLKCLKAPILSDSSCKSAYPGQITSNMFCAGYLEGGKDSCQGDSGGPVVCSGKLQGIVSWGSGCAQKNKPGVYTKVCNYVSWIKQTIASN

molecule: CCOC(=O)C1CCN(C(=O)C(Cc2cccc(C(=N)N)c2)NS(=O)(=O)c2ccc3ccccc3c2)CC1 (centres unmarked)
Ki, µM: 0.02
--
molecule: CS(=O)(=O)N1CCN(C(=O)C(Cc2cccc(C(=N)N)c2)NS(=O)(=O)c2ccc3ccccc3c2)CC1 (centres unmarked)
Ki, µM: 0.067
